Values were extracted from patent US20050256073A1.

- System: human PBMC
- Type: cell-based
- assayContext: read-out: IFN-α production EC50
Entries whose EC50 is below 80 nM take 1; entries at or above 80 nM take -1.

Solved entries:
[
  {
    "substance": "UUGUUGUUUUGUUGUUUUGUUGUU [ORN 15]",
    "classification": 1
  },
  {
    "substance": "UCGUCGUUUUGUCGUUUUGUCGUU [ORN 14]",
    "classification": 1
  },
  {
    "substance": "dNdNdNdNdNdNUUGUGdNdNdNdNdNdNdN [ORN 31]",
    "classification": -1
  },
  {
    "substance": "GGGGAUGAUGUUGUGGGGGGG [ORN 19]",
    "classification": -1
  },
  {
    "substance": "GCCACCGAGCCGAUUGUACC [ORN 22]",
    "classification": -1
  },
  {
    "substance": "GCCACCGAGCCGAUUUUACC [ORN 23]",
    "classification": 1
  }
]

Prompt: Find out if reported EC50 for UUGUUGUUUUUGGUGGUUGUUG [ORN 17] is less than 80 nM
Response: 1

Prompt: Given TUGTUGTTTTGTUGTTTTGTUGTT [ORN 16] , is recorded EC50 strictly lower than 80 nM?
Response: -1

---

- studyTarget: human TLR9 (Homo sapiens)
- Construct: expressed in transfected cells; host or cells: HEK293 cells, stably transfected, with NF-κB-luciferase reporter construct
- Sequence (Q9NR96 26-1032): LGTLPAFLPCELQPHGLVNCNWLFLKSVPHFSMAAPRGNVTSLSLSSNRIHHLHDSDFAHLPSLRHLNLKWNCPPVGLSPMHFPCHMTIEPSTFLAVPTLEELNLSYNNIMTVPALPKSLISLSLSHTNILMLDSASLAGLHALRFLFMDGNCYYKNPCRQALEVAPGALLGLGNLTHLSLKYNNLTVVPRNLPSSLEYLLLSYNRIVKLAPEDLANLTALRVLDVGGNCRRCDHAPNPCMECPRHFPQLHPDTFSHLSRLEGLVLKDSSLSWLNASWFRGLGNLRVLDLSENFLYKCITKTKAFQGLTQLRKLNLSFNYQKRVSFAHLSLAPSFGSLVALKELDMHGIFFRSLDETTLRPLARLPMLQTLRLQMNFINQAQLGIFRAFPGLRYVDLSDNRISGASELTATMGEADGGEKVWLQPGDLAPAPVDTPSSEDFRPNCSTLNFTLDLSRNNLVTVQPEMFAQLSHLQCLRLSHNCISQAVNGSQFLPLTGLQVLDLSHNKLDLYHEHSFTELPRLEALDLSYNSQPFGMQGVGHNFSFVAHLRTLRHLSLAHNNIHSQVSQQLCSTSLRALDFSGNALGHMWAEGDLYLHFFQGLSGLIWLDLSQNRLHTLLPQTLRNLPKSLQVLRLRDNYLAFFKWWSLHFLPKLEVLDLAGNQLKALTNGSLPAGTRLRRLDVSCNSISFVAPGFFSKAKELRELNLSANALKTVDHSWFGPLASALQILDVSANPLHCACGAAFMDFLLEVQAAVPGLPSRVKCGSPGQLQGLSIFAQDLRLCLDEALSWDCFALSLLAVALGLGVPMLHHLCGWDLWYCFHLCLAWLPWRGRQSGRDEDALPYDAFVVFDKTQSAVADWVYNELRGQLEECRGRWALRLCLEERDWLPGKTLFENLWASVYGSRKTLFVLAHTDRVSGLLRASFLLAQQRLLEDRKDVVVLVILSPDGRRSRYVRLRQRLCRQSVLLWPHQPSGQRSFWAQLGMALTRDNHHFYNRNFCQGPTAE
- experimentSummary: NF-κB-luciferase readout in HEK293 cells stably transfected with human TLR9
- Format: cell-based
- assayContext: Table 11; HEK293, NF-κB-luciferase
readoutName: pEC50
Give bare numbers, as −log10 of the molar value.

Prompt: Request the reported pEC50 associated with dTdCdGdTdCdGdTdTdT 2′-5′ (GUUGUGU) dAdAdT [ORN 13]
Response: 6.96

---

- System: human PBMC
- Type: cell-based
readoutName: IFN-α production max activity (pg/mL)
Give bare numbers, in pg/mL.

[
  {
    "constructSequence": "UUGUUGUUUUGUUGUUUUGUUGUU [ORN 15]",
    "IFN-α production max activity / pg/mL": 2500
  },
  {
    "constructSequence": "TUGTUGTTTTUGGUGGUUGUUG [ORN 18]",
    "IFN-α production max activity / pg/mL": 2617
  },
  {
    "constructSequence": "UUGUUGUUUUUGGUGGUUGUUG [ORN 17]",
    "IFN-α production max activity / pg/mL": 3000
  },
  {
    "constructSequence": "GCCACCGAGCCGAUUGUACC [ORN 22]",
    "IFN-α production max activity / pg/mL": 2417
  },
  {
    "constructSequence": "GGGGAUGAUGUUGUGGGGGGG [ORN 19]",
    "IFN-α production max activity / pg/mL": 2867
  }
]

Attention now turns to another entry.
Prompt: Param item = GCCACCGAGCCGAAGGCAAC [ORN 21, reference compound] ; retrieve measured IFN-α production max activity.
Response: 0

---

- System: human PBMC
- Assay type: cell-based
readoutName: IFN-α production max activity
Returns: string containing the numeric result and its unit.

[
  {
    "substance": "GCCACCGAGCCGAUUUUACC [ORN 23]",
    "IFN-α production max activity": "2333 pg/mL"
  },
  {
    "substance": "GGGGAUGAUGTUGTGGGGGGG [ORN 20]",
    "IFN-α production max activity": "0 pg/mL"
  },
  {
    "substance": "dNdNdNdNdNdNUUGUGdNdNdNdNdNdNdN [ORN 31]",
    "IFN-α production max activity": "766.7 pg/mL"
  },
  {
    "substance": "TUGTUGTTTTGTUGTTTTGTUGTT [ORN 16]",
    "IFN-α production max activity": "2267 pg/mL"
  },
  {
    "substance": "AGCGAAAGCAGGUCAAUUAU [ORN 5, reference compound]",
    "IFN-α production max activity": "0 pg/mL"
  }
]

Please find the next substance below.
Prompt: # value lookup — system human PBMC, readout IFN-α production max activity, item UCGUCGUUUUGUCGUUUUGUCGUU [ORN 14]
Response: 2783 pg/mL
